// data source = paper PMC11154717

# ASSAYED_TARGET: EGFRT790M (Homo sapiens, UniProt P00533, T790M)
# Sequence (P00533 25-1210 T790M): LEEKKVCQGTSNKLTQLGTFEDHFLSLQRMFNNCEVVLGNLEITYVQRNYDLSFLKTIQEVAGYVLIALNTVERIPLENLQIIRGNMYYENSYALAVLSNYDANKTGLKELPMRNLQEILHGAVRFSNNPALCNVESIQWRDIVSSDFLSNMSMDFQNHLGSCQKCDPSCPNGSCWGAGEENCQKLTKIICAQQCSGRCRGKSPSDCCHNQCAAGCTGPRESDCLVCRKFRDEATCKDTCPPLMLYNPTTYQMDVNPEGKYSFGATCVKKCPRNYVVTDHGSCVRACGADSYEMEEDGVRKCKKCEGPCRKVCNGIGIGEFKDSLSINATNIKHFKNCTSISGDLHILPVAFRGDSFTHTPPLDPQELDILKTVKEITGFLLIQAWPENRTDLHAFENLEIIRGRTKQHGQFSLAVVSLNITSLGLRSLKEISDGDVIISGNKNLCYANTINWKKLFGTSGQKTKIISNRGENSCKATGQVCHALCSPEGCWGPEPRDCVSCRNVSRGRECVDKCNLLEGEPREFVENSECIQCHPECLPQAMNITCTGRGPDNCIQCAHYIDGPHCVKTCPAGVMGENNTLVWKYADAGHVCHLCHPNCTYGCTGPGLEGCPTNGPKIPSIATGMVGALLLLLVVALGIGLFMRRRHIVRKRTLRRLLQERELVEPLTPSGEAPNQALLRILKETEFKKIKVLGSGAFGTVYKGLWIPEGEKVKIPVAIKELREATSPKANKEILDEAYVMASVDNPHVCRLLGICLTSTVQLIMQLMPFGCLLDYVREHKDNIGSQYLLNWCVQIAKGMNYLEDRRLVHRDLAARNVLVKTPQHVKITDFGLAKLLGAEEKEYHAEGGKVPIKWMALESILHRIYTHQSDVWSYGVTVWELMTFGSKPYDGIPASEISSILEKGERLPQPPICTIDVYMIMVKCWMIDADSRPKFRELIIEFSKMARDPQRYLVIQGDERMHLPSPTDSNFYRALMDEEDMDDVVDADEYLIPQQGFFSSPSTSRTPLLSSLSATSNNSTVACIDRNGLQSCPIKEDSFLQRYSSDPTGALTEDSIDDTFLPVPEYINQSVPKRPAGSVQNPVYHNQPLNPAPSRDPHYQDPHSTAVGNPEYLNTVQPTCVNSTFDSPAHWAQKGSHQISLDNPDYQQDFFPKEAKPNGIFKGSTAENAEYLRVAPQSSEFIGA
# MEASUREMENT_PROTOCOL: EGFRT790M kinase inhibitory assay (HTRF)
# Assay type: biochemical
# TEST_CONTEXT: in MCF-7 cells, read-out: EGFRT790M kinase inhibition IC50
OBSERVED_PROPERTY: pIC50
Keep it numeric: pIC50 is minus log10 of the concentration in mol/L.

Given item c1ccc(-c2nnc(-c3ccccc3)c3c2C(c2ccsc2)=NC32CCCCC2)cc1 , the value recorded as its pIC50 is 6.43

----------
# ASSAYED_TARGET: EGFRT790M (Homo sapiens, UniProt P00533, T790M)
# MEASUREMENT_PROTOCOL: EGFRT790M kinase inhibitory assay (HTRF)
# Type: biochemical
# TEST_CONTEXT: in H69AR cells, read-out: EGFRT790M kinase inhibition IC50
OBSERVED_PROPERTY: pIC50
Keep it numeric: pIC50 is minus log10 of the concentration in mol/L.

Given item c1ccc(-c2nnc(-c3ccccc3)c3c2C(c2ccsc2)=NC32CCCCC2)cc1 , the value recorded as its pIC50 is 6.60

----------
# ASSAYED_TARGET: EGFR (Homo sapiens, UniProt P00533)
# Sequence (P00533 25-1210): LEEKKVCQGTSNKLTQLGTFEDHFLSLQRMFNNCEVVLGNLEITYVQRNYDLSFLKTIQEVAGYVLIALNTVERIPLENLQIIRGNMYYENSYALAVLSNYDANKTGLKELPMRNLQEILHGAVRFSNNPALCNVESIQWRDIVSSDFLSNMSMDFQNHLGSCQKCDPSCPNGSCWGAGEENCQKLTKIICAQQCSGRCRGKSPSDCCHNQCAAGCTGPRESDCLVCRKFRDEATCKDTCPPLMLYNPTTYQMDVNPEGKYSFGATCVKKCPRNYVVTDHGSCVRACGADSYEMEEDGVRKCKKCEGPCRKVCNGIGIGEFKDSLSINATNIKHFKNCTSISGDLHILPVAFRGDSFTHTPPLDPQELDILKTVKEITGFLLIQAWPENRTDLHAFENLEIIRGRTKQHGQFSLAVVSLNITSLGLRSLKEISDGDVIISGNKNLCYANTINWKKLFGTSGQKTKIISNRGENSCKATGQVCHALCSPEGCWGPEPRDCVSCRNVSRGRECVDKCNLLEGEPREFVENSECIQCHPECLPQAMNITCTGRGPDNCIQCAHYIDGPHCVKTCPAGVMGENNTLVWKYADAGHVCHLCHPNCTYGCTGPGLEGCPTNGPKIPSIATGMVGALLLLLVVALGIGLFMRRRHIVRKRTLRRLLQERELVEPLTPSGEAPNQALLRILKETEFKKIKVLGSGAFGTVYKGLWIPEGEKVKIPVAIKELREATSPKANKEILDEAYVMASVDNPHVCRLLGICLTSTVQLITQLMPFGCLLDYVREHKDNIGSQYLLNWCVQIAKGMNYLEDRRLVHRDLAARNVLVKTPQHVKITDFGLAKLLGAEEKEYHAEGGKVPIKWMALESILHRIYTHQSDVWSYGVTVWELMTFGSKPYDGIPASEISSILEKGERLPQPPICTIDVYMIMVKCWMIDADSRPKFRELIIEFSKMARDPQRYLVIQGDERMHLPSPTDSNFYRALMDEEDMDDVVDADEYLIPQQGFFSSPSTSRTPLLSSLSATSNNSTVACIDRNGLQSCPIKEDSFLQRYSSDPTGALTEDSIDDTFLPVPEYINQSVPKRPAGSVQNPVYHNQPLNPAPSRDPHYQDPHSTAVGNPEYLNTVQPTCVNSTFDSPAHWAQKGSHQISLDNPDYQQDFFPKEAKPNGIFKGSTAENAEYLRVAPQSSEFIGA
# MEASUREMENT_PROTOCOL: EGFR kinase inhibitory assay (HTRF)
# Type: biochemical
# TEST_CONTEXT: in H69AR cells, read-out: EGFR kinase inhibition IC50
OBSERVED_PROPERTY: IC50 (nM)
Please state the figure in nM; there is no need to write the unit.

Given item c1ccc(-c2nnc(-c3ccccc3)c3c2C(c2ccsc2)=NC32CCCCC2)cc1 , the value recorded as its IC50 is 200

----------
# System: H69AR lung cancer cells
# MEASUREMENT_PROTOCOL: XTT cell viability assay, H69AR
# Assay type: cell-based, human
# TEST_CONTEXT: Homo sapiens, H69AR; XTT, 72 h
This listing pairs molecules with measured IC50.
Please state the figure in µM; there is no need to write the unit.

Worked examples follow.
[[record]]
molecule = "Cc1cccc(C2=NC3(CCCCC3)c3c(-c4ccccc4)nnc(-c4ccccc4)c32)c1 [SPP3]"
units_label = "µM"
measured_result = 9.8

[[record]]
molecule = "Cc1ccc(-c2nnc(-c3ccccc3)c3c2C2(CCCCC2)N=C3c2ccccc2)cc1 [SPP11]"
units_label = "µM"
measured_result = 75.7

[[record]]
molecule = "Cc1ccc(-c2nnc(-c3ccccc3)c3c2C2(CCCCC2)N=C3c2ccsc2)cc1 [SPP14]"
units_label = "µM"
measured_result = 55.3

[[record]]
molecule = "Cc1ccc(-c2nnc(-c3ccccc3)c3c2C2(CCCCC2)N=C3c2ccc(C(C)(C)C)cc2)cc1 [SPP17]"
units_label = "µM"
measured_result = 63.3

[[record]]
molecule = "COc1ccccc1C1=NC2(CCCCC2)c2c(-c3ccccc3)nnc(-c3ccccc3)c21 [SPP5]"
units_label = "µM"
measured_result = 62.7

[[record]]
molecule = "CC(C)(C)c1ccc(C2=NC3(CCCCC3)c3c(-c4ccccc4)nnc(-c4ccccc4)c32)cc1 [SPP4]"
units_label = "µM"
measured_result = 92


Given item Cc1cccc(C2=NC3(CCCCC3)c3c(-c4ccc(F)cc4)nnc(-c4ccccc4)c32)c1 [SPP16] , the value recorded as its IC50 is 63.9

----------
# Test system: MCF-7 breast cancer cells
# MEASUREMENT_PROTOCOL: XTT cell viability assay, MCF-7
# Assay type: cell-based, human
# TEST_CONTEXT: Homo sapiens, MCF7; XTT, 72 h
1 if IC50 is below 50 µM. -1 if not; exact matches included in -1.

Solved entries:
[[record]]
compound = "Cc1ccc(-c2nnc(-c3ccccc3)c3c2C2(CCCCC2)N=C3c2ccccc2)cc1"
classification = -1

[[record]]
compound = "Clc1ccc(C2=NC3(CCCCC3)c3c(-c4cccc(Br)c4)nnc(-c4ccccc4)c32)cc1"
classification = 1

[[record]]
compound = "Cc1cccc(C2=NC3(CCCCC3)c3c(-c4ccccc4)nnc(-c4ccccc4)c32)c1"
classification = 1


Incoming: Hi there! Is IC50 for Cc1ccc(-c2nnc(-c3ccccc3)c3c2C2(CCCCC2)N=C3c2cccc(C)c2)cc1 below 50 µM, do you know?
Outgoing: 1

Incoming: Hi there! Is IC50 for FC(F)(F)c1ccc(C2=NC3(CCCCC3)c3c(-c4ccccc4)nnc(-c4ccccc4)c32)cc1 below 50 µM, do you know?
Outgoing: -1

Incoming: Hi there! Is IC50 for Clc1ccc(C2=NC3(CCCCC3)c3c(-c4ccccc4)nnc(-c4ccccc4)c32)cc1 below 50 µM, do you know?
Outgoing: 1

Incoming: Hi there! Is IC50 for c1ccc(-c2nnc(-c3ccccc3)c3c2C(c2ccsc2)=NC32CCCCC2)cc1 below 50 µM, do you know?
Outgoing: 1

Incoming: Hi there! Is IC50 for Cc1ccc(C2=NC3(CCCCC3)c3c(-c4ccccc4)nnc(-c4ccccc4)c32)cc1 below 50 µM, do you know?
Outgoing: 1

----------
# Test system: H69AR lung cancer cells
# MEASUREMENT_PROTOCOL: XTT cell viability assay, H69AR
# Type: cell-based, human
# TEST_CONTEXT: Homo sapiens, H69AR; XTT, 72 h
Yes if IC50 is below 30 µM. No if not; exact matches included in No.

Solved entries:
[[record]]
compound = "CC(C)(C)c1ccc(C2=NC3(CCCCC3)c3c(-c4cccc(Br)c4)nnc(-c4ccccc4)c32)cc1"
assayed_target = "H69AR lung cancer cells"
classification = "No"

[[record]]
compound = "c1ccc(-c2nnc(-c3ccccc3)c3c2C(c2ccsc2)=NC32CCCCC2)cc1"
assayed_target = "H69AR lung cancer cells"
classification = "Yes"

[[record]]
compound = "C#Cc1cccc(Nc2ncnc3cc(OCCOC)c(OCCOC)cc23)c1 [erlotinib, reference compound]"
assayed_target = "H69AR lung cancer cells"
classification = "Yes"

[[record]]
compound = "Brc1cccc(-c2nnc(-c3ccccc3)c3c2C2(CCCCC2)N=C3c2ccccc2)c1"
assayed_target = "H69AR lung cancer cells"
classification = "No"


API: the following record is the query input.
Incoming: Hi there! Is IC50 for Clc1ccc(C2=NC3(CCCCC3)c3c(-c4cccc(Br)c4)nnc(-c4ccccc4)c32)cc1 below 30 µM, do you know?
Outgoing: No

----------
# ASSAYED_TARGET: EGFR (Homo sapiens, UniProt P00533)
# MEASUREMENT_PROTOCOL: EGFR kinase inhibitory assay (HTRF)
# Type: biochemical
# TEST_CONTEXT: in PC-3 cells, read-out: EGFR kinase inhibition IC50
OBSERVED_PROPERTY: IC50 (nM)
Please state the figure in nM; there is no need to write the unit.

Given item c1ccc(-c2nnc(-c3ccccc3)c3c2C(c2ccsc2)=NC32CCCCC2)cc1 , the value recorded as its IC50 is 420

----------
# Test system: MCF-7 breast cancer cells
# MEASUREMENT_PROTOCOL: XTT cell viability assay, MCF-7
# Format: cell-based, human
# TEST_CONTEXT: Homo sapiens, MCF7; XTT, 72 h
This listing pairs molecules with measured IC50.
Please state the figure in µM; there is no need to write the unit.

Worked examples follow.
[[record]]
molecule = "Clc1ccc(C2=NC3(CCCCC3)c3c(-c4ccccc4)nnc(-c4ccccc4)c32)cc1Cl [SPP7]"
observed_property = "IC50"
measured_result = 69.2

[[record]]
molecule = "Cc1ccc(-c2nnc(-c3ccccc3)c3c2C2(CCCCC2)N=C3c2ccsc2)cc1 [SPP14]"
observed_property = "IC50"
measured_result = 41.5

[[record]]
molecule = "Cc1ccc(-c2nnc(-c3ccccc3)c3c2C2(CCCCC2)N=C3c2ccc(C(F)(F)F)cc2)cc1 [SPP21]"
observed_property = "IC50"
measured_result = 54.7


Given item CC(C)(C)c1ccc(C2=NC3(CCCCC3)c3c(-c4ccc(F)cc4)nnc(-c4ccccc4)c32)cc1 [SPP18] , the value recorded as its IC50 is 65.8

----------
# System: H69AR lung cancer cells
# MEASUREMENT_PROTOCOL: XTT cell viability assay, H69AR
# Type: cell-based, human
# TEST_CONTEXT: Homo sapiens, H69AR; XTT, 72 h
Ranges used to classify IC50: low (below 30 µM), moderate (30 µM to below 70 µM), high (70 µM or more)

Solved entries:
[[record]]
record_smiles = "Clc1ccc(C2=NC3(CCCCC3)c3c(-c4ccccc4)nnc(-c4ccccc4)c32)cc1"
classification = "high"

[[record]]
record_smiles = "Fc1ccc(-c2nnc(-c3ccccc3)c3c2C2(CCCCC2)N=C3c2ccccc2)cc1"
classification = "low"

[[record]]
record_smiles = "Cc1ccc(-c2nnc(-c3ccccc3)c3c2C2(CCCCC2)N=C3c2cccc(C)c2)cc1"
classification = "moderate"

[[record]]
record_smiles = "Cc1ccc(C2=NC3(CCCCC3)c3c(-c4ccccc4)nnc(-c4ccccc4)c32)cc1"
classification = "low"

[[record]]
record_smiles = "c1ccc(C2=NC3(CCCCC3)c3c(-c4ccccc4)nnc(-c4ccccc4)c32)cc1"
classification = "low"

[[record]]
record_smiles = "O=[N+]([O-])c1ccc(C2=NC3(CCCCC3)c3c(-c4ccccc4)nnc(-c4ccccc4)c32)cc1"
classification = "moderate"

[[record]]
record_smiles = "Cc1ccc(-c2nnc(-c3ccccc3)c3c2C2(CCCCC2)N=C3c2ccc(C(F)(F)F)cc2)cc1"
classification = "low"

[[record]]
record_smiles = "Clc1ccc(C2=NC3(CCCCC3)c3c(-c4ccccc4)nnc(-c4ccccc4)c32)cc1Cl"
classification = "high"


Incoming: Exercise: read the entry CC(C)(C)c1ccc(C2=NC3(CCCCC3)c3c(-c4ccc(F)cc4)nnc(-c4ccccc4)c32)cc1 and state which class it falls under.
Outgoing: high
